- System: PC-3 prostate
- Experiment summary: NCI tumour cell line growth inhibition, 48 h
Recorded TGI for the following compounds

Compound | Target under test | Readout value
Oc1[nH]c2ccccc2c1N=NC(=S)Nc1ccc(Cl)cc1 | PC-3 prostate | > 100 µM
O=c1cc(-c2ccccc2)oc2c(-c3cc(Cl)cc4c(=O)cc(-c5ccccc5)oc34)cc(Cl)cc12 | PC-3 prostate | > 100 µM
N#Cc1nc(NC(=O)c2ccccc2C(=O)O)c(C#N)[nH]1 | PC-3 prostate | > 100 µM
NC(=O)N/N=C1\CC2C3CC4C2C4C13 (stereo unspecified) | PC-3 prostate | > 100 µM
Cc1ccc(-c2nc3nc(-c4ccc(F)cc4)nc(N4CCCNCC4)c3o2)cc1 | PC-3 prostate | 3.18 µM

-- ask # lookup: TGI of O=c1[nH]c(=O)n(C2CC(O)C(CO)O2)cc1OCc1ccccc1 (stereo unspecified)
-- reply > 100 µM

-- ask # lookup: TGI of N#Cc1c(-c2ccccc2)cc(-c2ccc(Cl)cc2)[nH]c1=S
-- reply > 100 µM

-- ask # lookup: TGI of CCOC(=O)C1CCC(=O)N1C(=O)c1ccccc1 (stereo unspecified)
-- reply > 100 µM

-- ask # lookup: TGI of CCCCCCCCCc1nn2c(Cc3ccccc3)nnc2s1
-- reply 51 µM

-- ask # lookup: TGI of CC12CCCC3(CC(=O)C(C)(C)C3C(=O)C1)C2 (stereo unspecified)
-- reply > 100 µM

-- ask # lookup: TGI of CN(C)CCNC(=O)Cn1ccc(=O)c2c([N+](=O)[O-])cccc21
-- reply > 100 µM

-- ask # lookup: TGI of O=c1[nH]nc(Cc2ccccc2)n1/N=C/c1ccncc1
-- reply > 100 µM

-- ask # lookup: TGI of O=C(Nc1ccc(Cl)c(Cl)c1)NS(=O)(=O)c1cnccc1Oc1ccc(F)cc1
-- reply > 100 µM

###

Recorded TGI for the following compounds
- Test system: LOX IMVI melanoma
- Experiment summary: NCI tumour cell line growth inhibition, 48 h

Below, each entry is followed by its recorded TGI result.
Compound | Target under test | Readout value
CCOP(=O)(/C=C\n1ccc(N)nc1=O)OCC | LOX IMVI melanoma | > 100 µM
C=C1C(=O)O[C@H]2[C@H]1CC/C(C=Nc1c(N)cc(C(F)(F)F)cc1Br)=C\CC[C@@]1(C)O[C@@H]21 | LOX IMVI melanoma | 2.74 µM
O=c1[nH]c(Nc2cccc(CO)c2)nc2nc[nH]c12 | LOX IMVI melanoma | > 100 µM
NC(=O)N/N=C1\CC2C3CC4C2C4C13 (stereo unspecified) | LOX IMVI melanoma | > 100 µM

-- ask # lookup: TGI of COC(=O)C(/C(=N\O)C(=O)Nc1cccc(Cl)c1C)c1cnc2ccccc2n1 (stereo unspecified)
-- reply > 100 µM

-- ask # lookup: TGI of Cc1ccc(/C=C2\Cc3c(C)cc(C)cc3C2=O)c(C(=O)O)c1
-- reply 48.9 µM

###

Recorded TGI for the following compounds
- Test system: SW-620 colon
- Experiment summary: NCI tumour cell line growth inhibition, 48 h

Compound | Target under test | TGI
O=c1cc(N2CCCC2)[nH]c(=O)n1-c1ccccc1 | SW-620 colon | > 100 µM
Nc1ccc(/C=C/C(=O)NCc2cc3cc(-c4ccc(C(=O)N5CCC(F)(F)CC5)cc4)cc(-c4ccc(F)cc4)c3o2)cn1 | SW-620 colon | > 100 µM
CNC(=O)c1nn(C)c2c1C(C)(C)Cc1cnc(Nc3ccc(N4CCN(C)CC4)cc3)nc1-2 | SW-620 colon | > 10 µM
O=c1[nH]nc(Cc2ccccc2)n1/N=C/c1ccncc1 | SW-620 colon | > 100 µM
CC(=O)OCc1c(O)c2c(c(O)c1COC(C)=O)C(=O)C=CC2=O | SW-620 colon | 14.3 µM

-- ask Under SW-620 colon: TGI value of Cc1cc(N(CCC#N)CCC#N)ccc1/C=C(\NC(=O)/C=C/c1ccccc1)C(=O)NN ?
-- reply > 100 µM

-- ask Under SW-620 colon: TGI value of COc1ccc(C(=O)c2ccc([As]=O)cc2)cc1 (stereo not given) ?
-- reply 0.111 µM

-- ask Under SW-620 colon: TGI value of O=C(N/N=C/c1ccccc1O)c1ccccc1 ?
-- reply > 100 µM

-- ask Under SW-620 colon: TGI value of CCNC(=O)COc1ccc(Cl)cc1Cl ?
-- reply > 100 µM

-- ask Under SW-620 colon: TGI value of CSC1=Nc2ccccc2N=C(c2ccc(Cl)cc2)C1 ?
-- reply > 100 µM

-- ask Under SW-620 colon: TGI value of CC(C)(C)C(=O)[CH-]C(=O)C(C)(C)C.CC(C)(C)C(=O)[CH-]C(=O)C(C)(C)C.CN(C)c1ccc([O-])cc1.CN(C)c1ccc([O-])cc1.[Ti+4] ?
-- reply > 100 µM

-- ask Under SW-620 colon: TGI value of O=c1oc2ccccc2[n+]([O-])c1-c1ccccc1 ?
-- reply > 100 µM

-- ask Under SW-620 colon: TGI value of N#Cc1nc(NC(=O)c2ccccc2C(=O)O)c(C#N)[nH]1 ?
-- reply > 100 µM

-- ask Under SW-620 colon: TGI value of CCCCN(CC)CC(C(C)=O)c1c(O)c2ccccc2oc1=O (stereo not given) ?
-- reply > 100 µM

-- ask Under SW-620 colon: TGI value of O=[N+]([O-])c1ccc(Sc2c3ccccc3nc3cc(Cl)ccc23)cc1 ?
-- reply > 100 µM

-- ask Under SW-620 colon: TGI value of CC(=O)OC1C(COC(=O)c2ccccc2)OC(Nc2ncc(-c3ccc(Br)cc3)s2)C(OC(=O)c2ccccc2)C1OC(=O)c1ccccc1 (stereo not given) ?
-- reply > 100 µM

-- ask Under SW-620 colon: TGI value of C#CCN(Cc1ccc2nc(OC)c(OC)nc2c1)c1cc(OC)c(OC)c(OC)c1 ?
-- reply > 100 µM

-- ask Under SW-620 colon: TGI value of CCOC(=O)C1SC(=Nc2ccc(Cl)cc2)N=C1C (stereo not given) ?
-- reply 35.2 µM

-- ask Under SW-620 colon: TGI value of CC(=O)O[C@H]1CCc2c(cc(N)c3c2C(=O)C[C@]2(C)C([C@H](C)CCCC(C)C)CCC32C)C1(C)C (stereo not given in full) ?
-- reply > 100 µM

-- ask Under SW-620 colon: TGI value of CCOC(=O)/C(C#N)=C\C=C(/Cl)c1ccc(Cl)cc1 ?
-- reply 26.3 µM

-- ask Under SW-620 colon: TGI value of CN(C)CCC(=O)/C=C\c1ccccc1 ?
-- reply 35.8 µM

-- ask Under SW-620 colon: TGI value of Cc1ccc(NC(=O)c2cc(S(=O)(=O)N3C(=O)NC(=O)NS3(=O)=O)c(S)cc2Cl)cc1 ?
-- reply > 100 µM

-- ask Under SW-620 colon: TGI value of O=C(/C=C/c1ccccc1)CC(=O)CCC(=O)Nc1ccc(Cl)cc1 ?
-- reply > 100 µM

-- ask Under SW-620 colon: TGI value of CCC(=O)Nc1nc2c(ncn2C2OC(COC(=O)CC)C(OC(=O)CC)C2OC(=O)CC)c(=O)[nH]1 (stereo not given) ?
-- reply > 100 µM

-- ask Under SW-620 colon: TGI value of CC(C)(Oc1ccc(/C=C/C(=O)c2ccc(Cl)cc2)cc1)C(=O)Nc1c(Cl)cccc1Cl ?
-- reply 27.8 µM
